Target: Vesicular acetylcholine transporter (Torpedo californica, UniProt P81721)
Sequence (P81721 whole entry): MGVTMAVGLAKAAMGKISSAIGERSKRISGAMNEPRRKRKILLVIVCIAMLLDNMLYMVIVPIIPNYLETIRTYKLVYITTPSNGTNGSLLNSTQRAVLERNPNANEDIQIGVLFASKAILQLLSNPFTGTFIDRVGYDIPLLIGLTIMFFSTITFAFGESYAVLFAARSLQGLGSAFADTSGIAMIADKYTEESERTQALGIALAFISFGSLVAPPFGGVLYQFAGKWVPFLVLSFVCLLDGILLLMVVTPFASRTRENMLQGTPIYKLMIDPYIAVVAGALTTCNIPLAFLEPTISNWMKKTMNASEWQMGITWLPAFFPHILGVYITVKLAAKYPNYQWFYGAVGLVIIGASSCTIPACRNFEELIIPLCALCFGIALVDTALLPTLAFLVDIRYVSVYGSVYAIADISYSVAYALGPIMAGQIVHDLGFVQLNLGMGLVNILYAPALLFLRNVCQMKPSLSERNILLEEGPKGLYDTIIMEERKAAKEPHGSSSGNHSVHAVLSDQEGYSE
readout_name: Ki

O[C@@H]1CCCC[C@H]1N1CCC2(CCCc3ccccc32)CC1	24.2 nM
O[C@@H]1CCN(Cc2cccc(I)c2)C[C@H]1N1CCC2(CCCc3ccccc32)CC1	0.856 nM
O[C@@H]1CCN(Cc2cccc(I)c2)C[C@H]1N1CCC2(C=Cc3ccccc32)CC1	0.264 nM
O[C@@H]1CCN(Cc2ccccc2I)C[C@H]1N1CCC2(CCCc3ccccc32)CC1	5.8 nM
O[C@@H]1CCN(Cc2ccc(F)cc2)C[C@H]1N1CCC2(CCCc3ccccc32)CC1	2.64 nM
O[C@@H]1Cc2ccccc2C[C@H]1N1CCC2(CCc3ccccc32)CC1	0.36 nM
O[C@@H]1CCCC[C@H]1N1CCC2(C=Cc3ccccc32)CC1	6.93 nM

---

Molecular target: Vesicular acetylcholine transporter (Torpedo californica, UniProt P81721)
Sequence (P81721 whole entry): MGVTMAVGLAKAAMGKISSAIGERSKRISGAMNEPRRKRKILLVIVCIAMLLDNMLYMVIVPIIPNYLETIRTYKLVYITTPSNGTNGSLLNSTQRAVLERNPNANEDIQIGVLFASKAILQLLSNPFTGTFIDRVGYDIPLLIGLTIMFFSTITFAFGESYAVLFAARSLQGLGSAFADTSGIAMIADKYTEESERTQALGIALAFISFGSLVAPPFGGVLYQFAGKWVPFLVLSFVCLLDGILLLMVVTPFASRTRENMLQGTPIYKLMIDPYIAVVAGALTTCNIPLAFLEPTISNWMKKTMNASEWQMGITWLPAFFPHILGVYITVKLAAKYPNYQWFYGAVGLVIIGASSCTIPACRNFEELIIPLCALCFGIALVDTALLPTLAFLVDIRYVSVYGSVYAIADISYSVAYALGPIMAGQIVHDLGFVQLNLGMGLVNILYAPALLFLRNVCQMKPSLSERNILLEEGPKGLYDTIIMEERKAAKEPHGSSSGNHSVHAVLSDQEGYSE
readout_name: Ki

O[C@@H]1CCN(Cc2ccc(I)cc2)C[C@H]1N1CCC2(C=Cc3ccccc32)CC1	0.762 nM
O[C@@H]1Cc2ccccc2C[C@H]1N1CCC2(C=Cc3ccc(Br)cc32)CC1	1.4 nM
O[C@@H]1CCN(Cc2ccccc2I)C[C@H]1N1CCC2(C=Cc3ccccc32)CC1	0.798 nM
O[C@@H]1CCN(Cc2ccc(I)cc2)C[C@H]1N1CCC2(CCCc3ccccc32)CC1	0.638 nM
O[C@@H]1Cc2ccccc2C[C@H]1N1CCC2(C=Cc3c(Br)cccc32)CC1	0.212 nM
O[C@@H]1CCN(Cc2ccc(I)cc2)C[C@H]1N1CCC(c2ccccc2)CC1	0.05 nM
O[C@@H]1Cc2ccccc2C[C@H]1N1CCC2(C=Cc3cc(Br)ccc32)CC1	0.271 nM
O[C@@H]1Cc2ccccc2C[C@H]1N1CCC2(CCCc3ccccc32)CC1	18.4 nM
O[C@@H]1CCN(Cc2cccc(I)c2)C[C@H]1N1CCC(c2ccccc2)CC1	0.063 nM
O[C@@H]1Cc2ccccc2C[C@H]1N1CCC2(C=Cc3ccccc32)CC1	0.121 nM

Where these numbers come from: ChEMBL document CHEMBL1127611
